Quick reference: Kd of the listed items.
Target: RAF kinases (Homo sapiens, UniProt P15056)
Sequence (P15056 whole entry): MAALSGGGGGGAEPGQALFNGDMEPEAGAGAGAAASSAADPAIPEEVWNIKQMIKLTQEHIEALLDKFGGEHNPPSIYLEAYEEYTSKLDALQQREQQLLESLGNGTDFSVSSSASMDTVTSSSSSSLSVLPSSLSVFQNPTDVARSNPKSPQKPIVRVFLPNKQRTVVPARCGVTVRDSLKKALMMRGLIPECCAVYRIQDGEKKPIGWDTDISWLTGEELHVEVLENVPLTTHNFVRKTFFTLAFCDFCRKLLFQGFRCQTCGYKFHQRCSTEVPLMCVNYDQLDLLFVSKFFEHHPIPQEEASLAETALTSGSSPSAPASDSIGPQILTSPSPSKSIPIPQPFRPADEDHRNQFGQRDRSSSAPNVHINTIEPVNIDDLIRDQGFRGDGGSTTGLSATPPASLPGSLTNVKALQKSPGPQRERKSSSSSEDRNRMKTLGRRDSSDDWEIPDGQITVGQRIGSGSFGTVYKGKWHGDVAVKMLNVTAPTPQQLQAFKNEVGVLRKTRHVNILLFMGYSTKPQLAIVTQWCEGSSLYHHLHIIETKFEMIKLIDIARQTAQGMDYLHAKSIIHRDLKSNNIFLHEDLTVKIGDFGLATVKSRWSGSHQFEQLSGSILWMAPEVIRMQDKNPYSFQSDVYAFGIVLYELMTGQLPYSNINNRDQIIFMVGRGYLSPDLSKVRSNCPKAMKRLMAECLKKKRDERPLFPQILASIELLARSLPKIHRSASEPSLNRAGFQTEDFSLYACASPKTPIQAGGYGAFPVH
Assay: biochemical

Known Kd results, listed for orientation:
COc1cc2ncnc(Sc3cccc(NC(=O)Nc4cc(C(C)(C)C)nn4-c4cncc(F)c4)c3)c2cc1OC ... 500 to 1000 nM
COc1cc2ncnc(Oc3cccc(NC(=O)Nc4cc(C(C)(C)C)nn4Cc4ccccc4)c3)c2cc1OC ... 500 to 1000 nM
COc1cc2ncnc(Sc3cccc(NC(=O)Nc4cc(C(C)(C)C)nn4-c4cccc(Cl)c4)c3)c2cc1OC ... 500 to 1000 nM
COc1cc2ncnc(Sc3cccc(NC(=O)Nc4cc(C(C)(C)C)on4)c3)c2cc1OCCN1CCN(CCO)CC1 ... 250 to 500 nM
COc1cc2ncnc(Oc3cccc(NC(=O)Nc4cc(C(C)(C)C)on4)c3)c2cc1OCCCN1CCS(=O)(=O)CC1 ... 250 to 500 nM

// Kd lookup, key: COc1cc2ncnc(Oc3cccc(NC(=O)Nc4cc(-c5ccccc5)on4)c3)c2cc1OC
500 to 1000 nM

// Kd lookup, key: COc1cc2c(Oc3cccc(NC(=O)Nc4cc(C(C)(C)C)on4)c3)ncnc2cc1OCCN1CCN(CCO)CC1
250 to 500 nM

====

Quick reference: pKd of the listed items.
Target: RAF kinases (Homo sapiens)
Experiment: biochemical
pKd: −log10 of the molar value. Counter-ions that a name gives are not always drawn.

Known pKd results, listed for orientation:
COc1cc2ncnc(Oc3cccc(NC(=O)Nc4cc(C(C)(C)C(F)(F)F)on4)c3F)c2cc1OC [Ex 265] ... 6.30 to 6.60
COCCOc1cc2ncnc(Sc3cccc(NC(=O)Nc4cc(C(C)(C)C)on4)c3)c2cc1OCCOC [Ex 53, hydrochloride] ... 6.00 to 6.30
COc1cc2c(Sc3cccc(NC(=O)Nc4cc(C(C)(C)C)on4)c3)ncnc2cc1OCCCN1CCCCC1 [Ex 76] ... 6.30 to 6.60
COCCOc1cc2ncnc(Sc3cccc(NC(=O)Nc4cc(C(C)(C)C)no4)c3)c2cc1OCCOC [Ex 247] ... 6.30 to 6.60

// pKd lookup, key: COc1cc2ncnc(Oc3cccc(NC(=O)Nc4cc(C(C)(C)C)nn4C(C)C)c3)c2cc1OC [Ex 334]
6.30 to 6.60

// pKd lookup, key: COc1cc2c(Oc3cccc(NC(=O)Nc4cc(C(C)(C)C)on4)c3)ncnc2cc1O [Ex 95]
6.00 to 6.30

// pKd lookup, key: COc1cc2ncnc(Sc3cccc(NC(=O)Nc4ccc(C(F)(F)F)cc4)c3)c2cc1OC [Ex 184]
6.00 to 6.30

// pKd lookup, key: COCCOc1cc2ncnc(Oc3cccc(NC(=O)Nc4cc(C(C)(C)C)on4)c3)c2cc1OCCOC [Ex 12, hydrochloride]
6.00 to 6.30

====

Quick reference: Kd of the listed items.
Target: RAF kinases (Homo sapiens, UniProt P04049)
Sequence (P04049 whole entry): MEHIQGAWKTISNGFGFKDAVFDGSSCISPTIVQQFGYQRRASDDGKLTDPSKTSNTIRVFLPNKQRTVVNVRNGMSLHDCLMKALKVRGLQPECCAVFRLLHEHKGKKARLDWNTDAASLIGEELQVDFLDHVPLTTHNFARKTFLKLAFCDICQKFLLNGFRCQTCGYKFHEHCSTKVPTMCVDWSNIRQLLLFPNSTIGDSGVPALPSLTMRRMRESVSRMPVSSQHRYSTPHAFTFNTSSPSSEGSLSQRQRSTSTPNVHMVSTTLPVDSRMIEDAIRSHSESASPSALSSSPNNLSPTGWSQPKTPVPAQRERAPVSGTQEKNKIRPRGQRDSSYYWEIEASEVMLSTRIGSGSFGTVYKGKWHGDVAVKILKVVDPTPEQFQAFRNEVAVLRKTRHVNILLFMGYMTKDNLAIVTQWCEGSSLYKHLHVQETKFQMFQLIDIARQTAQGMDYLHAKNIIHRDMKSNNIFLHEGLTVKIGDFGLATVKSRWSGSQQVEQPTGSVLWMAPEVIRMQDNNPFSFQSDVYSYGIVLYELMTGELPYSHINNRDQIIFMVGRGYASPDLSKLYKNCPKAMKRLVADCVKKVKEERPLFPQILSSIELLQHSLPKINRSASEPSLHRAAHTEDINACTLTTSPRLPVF
Experiment: biochemical

CCOC(C)(C)c1cc(NC(=O)Nc2cccc(Sc3ncnc4cc(OC)c(OC)cc34)c2)n(-c2ccccc2)n1 ... > 1000 nM

// Kd lookup, key: COc1cc2ncnc(Sc3cccc(NC(=O)Nc4cc(C(C)(C)C)nn4C(C)C)c3)c2cc1OC
250 to 500 nM

// Kd lookup, key: COc1cc2ncnc(Oc3cccc(NC(=O)Nc4cc(C5CCOCC5)no4)c3)c2cc1OC
500 to 1000 nM

// Kd lookup, key: COc1cc2ncnc(Oc3cccc(NC(=O)Nc4cc(C(C)(C)C)nn4-c4cnccc4C)c3)c2cc1OC
250 to 500 nM

====

Target: RAF kinases (Homo sapiens, UniProt P15056, V600E)
Sequence (P15056 whole entry V600E): as the sequence (P15056 whole entry) above, with V600E counted along it
Assay: biochemical
Structures can show the parent of a compound that is named as a salt.
assay_readout: Kd

Known Kd results, listed for orientation:
COc1cc2ncnc(Oc3cccc(NC(=O)Nc4cc(C(F)(F)F)nn4-c4ccc(F)cc4)c3)c2cc1OC ... 500 to 1000 nM
COc1cc2ncnc(Sc3cccc(NC(=O)Nc4cc(C(C)(C)C)nn4-c4ccccc4Cl)c3)c2cc1OC ... 250 to 500 nM
CCOc1cc2ncnc(Oc3cccc(NC(=O)Nc4cc(C(C)(C)C)on4)c3)c2cc1OCC [Ex 13, hydrochloride] ... 250 to 500 nM
COCCOc1cc(NC(=O)Nc2cccc(Sc3ncnc4cc(OC)c(OC)cc34)c2)ccc1C(F)(F)F ... 500 to 1000 nM
COc1cc2ncnc(Oc3cccc(NC(=O)Nc4cc(C(C)(C)C)nn4-c4ccc(C)cc4C)c3)c2cc1OC ... 500 to 1000 nM

// Kd lookup, key: COc1cc2ncnc(Sc3cccc(NC(=O)Nc4ccc(C(F)(F)F)cc4)c3)c2cc1OC
250 to 500 nM

// Kd lookup, key: COc1cc2ncnc(Oc3cccc(NC(=O)Nc4cc(C(C)(C)C)nn4-c4ccccc4Cl)c3)c2cc1OC
250 to 500 nM

// Kd lookup, key: CCOC(C)(C)c1cc(NC(=O)Nc2cccc(Sc3ncnc4cc(OC)c(OC)cc34)c2)n(-c2ccccc2)n1
250 to 500 nM

// Kd lookup, key: COc1cc2ncnc(Oc3cccc(NC(=O)Nc4cc(C(C)(C)C)nn4-c4ccccc4)c3)c2cc1OC
500 to 1000 nM

// Kd lookup, key: COc1cc2ncnc(Oc3cccc(NC(=O)Nc4ccc(C(F)(F)F)c(F)c4)c3)c2cc1OC
250 to 500 nM

====

Target: RAF kinases (Homo sapiens, UniProt P04049)
Conditions: read-out: RAF1 Kd; RAF1
pKd: −log10 of the molar value.
assay_readout: pKd

Known pKd results, listed for orientation:
COc1cc2ncnc(Sc3cccc(NC(=O)Nc4cc(C(C)(C)C)nn4-c4cccc(Cl)c4)c3)c2cc1OC [Ex 364] ... < 6.00
CCOc1cc2ncnc(Sc3cccc(NC(=O)Nc4cc(C(C)(CF)CF)on4)c3)c2cc1OC [Example 388] ... > 6.60
COc1cc2ncnc(Sc3cccc(NC(=O)Nc4cc(C(C)(C)C)nn4-c4cccc(C)c4)c3)c2cc1OC [Ex 286] ... < 6.00
COc1cc2ncnc(Sc3cccc(NC(=O)Nc4cccc(C(C)(C)C#N)c4)c3)c2cc1OC [Ex 279] ... > 6.60
COc1cc2ncnc(Oc3cccc(NC(=O)Nc4cc(C(C)(C)C)nn4-c4ccccc4C(F)(F)F)c3)c2cc1OC [Ex 376] ... < 6.00
CCOc1cc2c(Sc3cccc(NC(=O)Nc4cc(C(C)(C)C(F)(F)F)on4)c3)ncnc2cc1OC [Ex 262] ... > 6.60
COCCOc1cc2ncnc(Oc3cccc(NC(=O)Nc4cc(C(C)(C)F)no4)c3)c2cc1OC [Ex 218] ... > 6.60

In the following, a different compound is considered.
Hello, I am looking for reported pKd with RAF kinases (Homo sapiens, UniProt P04049) for COCCOc1cc2ncnc(Oc3cccc(NC(=O)Nc4cc(C(C)(CF)CF)nn4-c4ccccc4)c3)c2cc1OC [Ex 228] . Could you help?
< 6.00

====

Quick reference: Kd of the listed items.
Target: RAF kinases (Homo sapiens, UniProt P15056)
Experiment: biochemical

Known Kd results, listed for orientation:
COCCOc1cc2ncnc(Sc3cccc(NC(=O)Nc4cc(C(C)(C)C)nn4-c4ccc(C)cc4)c3)c2cc1OC ... > 1000 nM
COc1cc2ncnc(Oc3cccc(NC(=O)Nc4cc(C(C)(CF)CF)no4)c3)c2cc1OC ... 500 to 1000 nM
COc1cc2ncnc(Sc3cccc(NC(=O)Nc4cccc(C(C)(C)C)c4)c3)c2cc1OC ... 250 to 500 nM

In the following, a different molecule is considered.
// Kd lookup, key: COc1cc2ncnc(Oc3cccc(NC(=O)Nc4cccc(C(C)C)c4)c3)c2cc1OC
250 to 500 nM

====

Quick reference: Kd of the listed items.
Target: UniProt:P15056
Experiment: biochemical

COc1cc2ncnc(Oc3cccc(NC(=O)Nc4cc(C(C)(C)C)on4)c3)c2cc1OC[C@@H](O)CN1CCN(C)CC1 ... 250 to 500 nM

// Kd lookup, key: COc1cc2ncnc(Sc3cccc(NC(=O)Nc4cc(C(C)(C)C)on4)c3)c2cc1OCCCN1CCN(C)CC1
250 to 500 nM

// Kd lookup, key: COc1cc2ncnc(Oc3cccc(NC(=O)Nc4cc(C(C)(C)C)on4)c3)c2cc1OCCN1CCCCC1
500 to 1000 nM

// Kd lookup, key: COc1cc2ncnc(Sc3cccc(NC(=O)Nc4cccc(C(F)(F)F)c4)c3)c2cc1OC
250 to 500 nM

// Kd lookup, key: COc1cc2ncnc(Oc3cccc(NC(=O)Nc4cc(C(C)(C)C)on4)c3)c2cc1OCCN1CCS(=O)(=O)CC1
250 to 500 nM

// Kd lookup, key: COc1cc2c(Sc3cccc(NC(=O)Nc4cc(C(C)(C)C)on4)c3)ncnc2cc1OCCN1CCN(S(C)(=O)=O)CC1
500 to 1000 nM

// Kd lookup, key: COCCOc1cc2c(Sc3cccc(NC(=O)Nc4cc(C(C)(C)C)on4)c3)ncnc2cc1OC
500 to 1000 nM
